Reported IC50 on Phospholipase A2, major isoenzyme (Sus scrofa) for assorted compounds, compiled from publications.

{"MOLECULE": "Cc1cc(Cl)cc2c1OCC(/C=C/C=C/C=C/C(=O)O)=C2", "TEST_TARGET": "Phospholipase A2, major isoenzyme (Sus scrofa)", "IC50 / µM": 10}
{"MOLECULE": "CCOC(=O)/C=C(C)/C=C/C=C(\\C)C1=Cc2cc(C)ccc2OC1", "TEST_TARGET": "Phospholipase A2, major isoenzyme (Sus scrofa)", "IC50 / µM": 7.5}
{"MOLECULE": "C=CCN(CC(=O)OCC)C(=O)c1ccc(C(=O)Oc2ccc(/C=C/C(=N)N)cc2)cc1", "TEST_TARGET": "Phospholipase A2, major isoenzyme (Sus scrofa)", "IC50 / µM": 59}
{"MOLECULE": "CCOC(=O)CC[C@H](NC(=O)/C(C)=C/c1ccc(C(=O)Oc2ccc(C(=N)N)cc2)cc1)C(=O)OCC", "TEST_TARGET": "Phospholipase A2, major isoenzyme (Sus scrofa)", "IC50 / µM": 63}

---

pIC50: −log10 of the molar value.
Reported pIC50 on Phospholipase A2, major isoenzyme (Sus scrofa, UniProt P00592) for assorted molecules, compiled from publications.
Outcome label depends on pIC50 relative to 5: at/above gives t, below gives f.

{"MOLECULE": "CCOC(=O)CN(Cc1ccccc1)Cc1ccc(C(=O)Oc2ccc(C(=N)N)cc2)cc1", "QUALITATIVE_LABEL": "t"}
{"MOLECULE": "C=CCN(CC(=O)OCC)C(=O)/C(C)=C/c1ccc(C(=O)Oc2ccc(C(=N)N)cc2)cc1", "QUALITATIVE_LABEL": "f"}
{"MOLECULE": "N=C(N)C1=Cc2ccc(OC(=O)c3ccc(C(=O)N(Cc4ccccc4)c4ccccc4)cc3)cc2CC1", "QUALITATIVE_LABEL": "t"}
{"MOLECULE": "CC(C)(C)c1cc2c(c(C(C)(C)C)c1)OCC(/C=C/C=C/C=C/C(=O)O)=C2", "QUALITATIVE_LABEL": "t"}
{"MOLECULE": "CCOC(=O)CC[C@H](NC(=O)/C=C/C=C/c1ccc(C(=O)Oc2ccc(C(=N)N)cc2)cc1)C(=O)OCC", "QUALITATIVE_LABEL": "f"}
{"MOLECULE": "N=C(N)c1ccc(OC(=O)c2ccc(C(=O)N3CCC[C@@H]3C(=O)OCc3ccccc3)cc2)cc1", "QUALITATIVE_LABEL": "f"}
{"MOLECULE": "CCOC(=O)CN(C(=O)/C=C/c1ccc(C(=O)Oc2ccc(C(=N)N)cc2)cc1)c1ccccc1", "QUALITATIVE_LABEL": "f"}
{"MOLECULE": "Cc1cc(C)c2c(c1)C=C(/C=C/C=C/C=C/C(=O)O)C(C)(C)O2", "QUALITATIVE_LABEL": "f"}
{"MOLECULE": "N=C(N)c1ccc(OC(=O)c2ccc(C(=O)N3CCN(Cc4ccccc4)CC3)cc2)cc1", "QUALITATIVE_LABEL": "f"}
{"MOLECULE": "CC(/C=C/C=C(\\C)C1=Cc2cc(-c3ccccc3)ccc2OC1)=C\\C(=O)O", "QUALITATIVE_LABEL": "t"}
{"MOLECULE": "N=C(N)C1=Cc2ccc(OC(=O)c3ccc(C(=O)N(CC(=O)OCc4ccccc4)c4ccccc4)cc3)cc2CC1", "QUALITATIVE_LABEL": "t"}
{"MOLECULE": "Cc1cc2c(c(C(C)(C)C)c1)OCC(/C=C/C=C/C=C/C(=O)O)=C2", "QUALITATIVE_LABEL": "t"}
{"MOLECULE": "CCOC(=O)/C=C(C)/C=C/C=C(\\C)C1=Cc2cc(C(C)(C)C)cc(C)c2OC1", "QUALITATIVE_LABEL": "t"}
